Target: benzodiazepine receptors
Assay: Inhibition of the binding to benzodiazepine receptors
Conditions: rat brains, 1 hour 30 minutes at 4° C., tracers 3H-RO-15-1788 and 3H-RO-5-4864, Table I, read-out: BDZ receptors
# key: entry, value: pIC50
Expect pIC50 as a plain number equal to -log10 of the molar concentration.

Example cases with answers are listed next.
INSERT INTO assay_data (structure_as_smiles, number) VALUES
  ('COc1ccc(SCC(=S)N2CCc3c(sc4c3C(c3ccccc3Cl)=NCc3nnc(C)n3-4)C2)cc1OC', 6.06),
  ('Cc1nnc2n1-c1sc3c(c1C(c1ccccc1Cl)=NC2)CCN(C(=O)CSC(C)(C)C)C3', 5.64),
  ('Cc1nnc2n1-c1sc3c(c1C(c1ccccc1Cl)=NC2)CCN(C(=O)CSc1ccccc1C(F)(F)F)C3', 6.57),
  ('Cc1nnc2n1-c1sc3c(c1C(c1ccccc1Cl)=NC2)CCN(C(=S)CSC(C)(C)C)C3', 5.81),
  ('Cc1nnc2n1-c1sc3c(c1C(c1ccccc1Cl)=NC2)CCN(C(=S)CSc1ccccc1C(F)(F)F)C3', 5.80);

Short answer please: pIC50, benzodiazepine receptors, entry COc1cc(SCC(=S)N2CCc3c(sc4c3C(c3ccccc3Cl)=NCc3nnc(C)n3-4)C2)cc(OC)c1OC
5.82

Please answer likewise for Cc1nnc2n1-c1sc3c(c1C(c1ccccc1Cl)=NC2)CCN(C(=O)CSc1cccc(C(F)(F)F)c1)C3
6.09

Please answer likewise for Cc1nnc2n1-c1sc3c(c1C(c1ccccc1Cl)=NC2)CCN(C(=S)CSc1ccc(C(F)(F)F)cc1)C3
5.48

Please answer likewise for CCCCCCCCCCCCCCCCSCC(=O)N1CCc2c(sc3c2C(c2ccccc2Cl)=NCc2nnc(C)n2-3)C1
6.92

Please answer likewise for Cc1nnc2n1-c1sc3c(c1C(c1ccccc1Cl)=NC2)CCN(C(=S)CSc1cccc(C(F)(F)F)c1)C3
6.21

Please answer likewise for Cc1nnc2n1-c1sc3c(c1C(c1ccccc1Cl)=NC2)CCN(C(=S)CSC(C)C)C3
4.32

Please answer likewise for COc1cc(SCC(=O)N2CCc3c(sc4c3C(c3ccccc3Cl)=NCc3nnc(C)n3-4)C2)cc(OC)c1OC
4.26

Please answer likewise for Cc1nnc2n1-c1sc3c(c1C(c1ccccc1Cl)=NC2)CCN(C(=O)CSc1ccc(C(F)(F)F)cc1)C3
5.92

Please answer likewise for COc1ccc(SCC(=S)N2CCc3c(sc4c3C(c3ccccc3Cl)=NCc3nnc(C)n3-4)C2)cc1
4.18

Please answer likewise for Cc1nnc2n1-c1sc3c(c1C(c1ccccc1Cl)=NC2)CCN(C(=S)CSc1ccc(C(C)(C)C)cc1)C3
4.36

----------
# key: entry, value: inhibition in vivo at 10 mg/kg
Experiment: Global ischemia on gerbils
Assay type: in vivo
Conditions: Meriones unguiculatus, 168 h, carotides clamped 10 minutes, hippocampes one week later, 3H-PK 11195, percentage of protection compared to control
Provide only the numeric value, understood in %.

INSERT INTO measurements (compound, experimental_readout, unit_symbol, number) VALUES
  ('Cc1nnc2n1-c1sc3c(c1C(c1ccccc1Cl)=NC2)CCN(C(=O)CSc1ccco1)C3 [Example 31]', 'inhibition in vivo at 10 mg/kg', '%', 36.2),
  ('COc1ccc(SCC(=S)N2CCc3c(sc4c3C(c3ccccc3Cl)=NCc3nnc(C)n3-4)C2)c(OC)c1OC [Example 16]', 'inhibition in vivo at 10 mg/kg', '%', 29.3),
  ('COc1ccc(SCC(=O)N2CCc3c(sc4c3C(c3ccccc3Cl)=NCc3nnc(C)n3-4)C2)cc1 [Example 9]', 'inhibition in vivo at 10 mg/kg', '%', 31.2),
  ('Cc1nnc2n1-c1sc3c(c1C(c1ccccc1Cl)=NC2)CCN(C(=S)CSc1ccccc1)C3 [Example 8]', 'inhibition in vivo at 10 mg/kg', '%', 26.2),
  ('Cc1nnc2n1-c1sc3c(c1C(c1ccccc1Cl)=NC2)CCN(C(=S)CSc1cccs1)C3 [Example 34]', 'inhibition in vivo at 10 mg/kg', '%', 34.7),
  ('COc1ccc(SCC(=S)N2CCc3c(sc4c3C(c3ccccc3Cl)=NCc3nnc(C)n3-4)C2)cc1OC [Example 12]', 'inhibition in vivo at 10 mg/kg', '%', 34.1),
  ('Cc1nnc2n1-c1sc3c(c1C(c1ccccc1Cl)=NC2)CCN(C(=S)CSC(C)C)C3 [Example 2]', 'inhibition in vivo at 10 mg/kg', '%', 36.3),
  ('Cc1nnc2n1-c1sc3c(c1C(c1ccccc1Cl)=NC2)CCN(C(=O)CSC(C)(C)C)C3 [Example 3]', 'inhibition in vivo at 10 mg/kg', '%', 34.3),
  ('Cc1nnc2n1-c1sc3c(c1C(c1ccccc1Cl)=NC2)CCN(C(=S)CSc1ccc(Oc2ccccc2)cc1)C3 [Example 30]', 'inhibition in vivo at 10 mg/kg', '%', 16.1),
  ('Cc1nnc2n1-c1sc3c(c1C(c1ccccc1Cl)=NC2)CCN(C(=S)CSc1cccc(C(F)(F)F)c1)C3 [Example 22]', 'inhibition in vivo at 10 mg/kg', '%', 48.1);

Form field: reported inhibition in vivo at 10 mg/kg of Cc1nnc2n1-c1sc3c(c1C(c1ccccc1Cl)=NC2)CCN(C(=S)CSc1ccc(F)cc1)C3 [Example 26]
26.5

Please answer likewise for Cc1nnc2n1-c1sc3c(c1C(c1ccccc1Cl)=NC2)CCN(C(=S)CSc1ccccc1C(F)(F)F)C3 [Example 20]
32.7

Please answer likewise for Cc1nnc2n1-c1sc3c(c1C(c1ccccc1Cl)=NC2)CCN(C(=S)CSc1ccc(C(C)(C)C)cc1)C3 [Example 18]
12.6

Please answer likewise for Cc1nnc2n1-c1sc3c(c1C(c1ccccc1Cl)=NC2)CCN(C(=S)CSC(C)(C)C)C3 [Example 4]
38.1

Please answer likewise for Cc1nnc2n1-c1sc3c(c1C(c1ccccc1Cl)=NC2)CCN(C(=O)CSc1ccc(F)cc1)C3 [Example 25]
14.7

----------
# key: entry, value: pIC50
Target: benzodiazepine receptors
Experiment: Inhibition of the binding to benzodiazepine receptors
Conditions: rat brains, 1 hour 30 minutes at 4° C., tracers 3H-RO-15-1788 and 3H-RO-5-4864, Table I, read-out: BDZ receptors
Expect pIC50 as a plain number equal to -log10 of the molar concentration.

Example cases with answers are listed next.
INSERT INTO assay_data (structure_as_smiles, number) VALUES
  ('Cc1nnc2n1-c1sc3c(c1C(c1ccccc1Cl)=NC2)CCN(C(=O)CSc1ccc(Oc2ccccc2)cc1)C3', 5.91),
  ('COc1ccc(SCC(=O)N2CCc3c(sc4c3C(c3ccccc3Cl)=NCc3nnc(C)n3-4)C2)cc1OC', 5.85);

Form field: reported pIC50 of Cc1nnc2n1-c1sc3c(c1C(c1ccccc1Cl)=NC2)CCN(C(=S)CSc1ccco1)C3
5.89

----------
# key: entry, value: inhibition in vivo at 10 mg/kg
Test: Global ischemia on gerbils
Type: in vivo
Conditions: Meriones unguiculatus, 168 h, carotides clamped 10 minutes, hippocampes one week later, 3H-PK 11195, percentage of protection compared to control

Form field: reported inhibition in vivo at 10 mg/kg of COc1cc(SCC(=S)N2CCc3c(sc4c3C(c3ccccc3Cl)=NCc3nnc(C)n3-4)C2)cc(OC)c1OC [Example 14]
19.7%

Please answer likewise for CCCCCCCCCCCCCCCCSCC(=S)N1CCc2c(sc3c2C(c2ccccc2Cl)=NCc2nnc(C)n2-3)C1 [Example 6]
27.8%

Please answer likewise for COc1ccc(SCC(=S)N2CCc3c(sc4c3C(c3ccccc3Cl)=NCc3nnc(C)n3-4)C2)cc1 [Example 10]
10.3%

----------
# key: entry, value: inhibition in vivo at 10 mg/kg
Experiment: Global ischemia on gerbils
Type: in vivo
Conditions: Meriones unguiculatus, 168 h, carotides clamped 10 minutes, hippocampes one week later, 3H-PK 11195, percentage of protection compared to control
Provide only the numeric value, understood in %.

INSERT INTO assay_data (structure_as_smiles, unit_symbol, number) VALUES
  ('Cc1nnc2n1-c1sc3c(c1C(c1ccccc1Cl)=NC2)CCN(C(=S)CSc1ccco1)C3', '%', 30.3),
  ('CCCCCCCCCCCCCCCCSCC(=O)N1CCc2c(sc3c2C(c2ccccc2Cl)=NCc2nnc(C)n2-3)C1', '%', 29.4),
  ('Cc1nnc2n1-c1sc3c(c1C(c1ccccc1Cl)=NC2)CCN(C(=O)CSc1ccccc1)C3', '%', 14.8),
  ('Cc1nnc2n1-c1sc3c(c1C(c1ccccc1Cl)=NC2)CCN(C(=O)CSc1ccc(C(F)(F)F)cc1)C3', '%', 37.5),
  ('Cc1nnc2n1-c1sc3c(c1C(c1ccccc1Cl)=NC2)CCN(C(=S)CSc1ccc(C(F)(F)F)cc1)C3', '%', 38.7);

// moving on: another record for inhibition in vivo at 10 mg/kg
Form field: reported inhibition in vivo at 10 mg/kg of Cc1nnc2n1-c1sc3c(c1C(c1ccccc1Cl)=NC2)CCN(C(=O)CSc1ccc(C(C)(C)C)cc1)C3
11.1

Source of measurements: patent US5049559A
